test: modifiers of HSF1 nuclear foci, imaging, Selleck Cancer Library (AID 1347162); conditions: human cells, at 10 µM; active compounds read low
Experimental Endpoint: plate-normalised HSF1 focus index
Give bare numbers.

Below: 4 molecules and their reported plate-normalised HSF1 focus index.
>  <Molecule>
CN1C(=O)C(Cc2c[nH]c3ccccc23)NC1=S (stereo not given)

>  <Data Value>
1.1

$$$$
>  <Molecule>
O=C(O)CCc1ccc(NCc2cccc(Oc3ccccc3)c2)cc1

>  <Data Value>
1.21

$$$$
>  <Molecule>
O=C(O)c1ccc(-c2c[nH]c3ncc(-c4ccccc4)cc23)cc1C1CCCC1

>  <Data Value>
1.11

$$$$
>  <Molecule>
Nc1nc(Cl)nc2c1ncn2[C@H]1C[C@H](O)[C@@H](CO)O1

>  <Data Value>
0.776

$$$$

Please examine the following record next.
Record CCOc1ccc(Nc2nc(-c3c(C)nc4ccccn34)cs2)cc1 , field plate-normalised HSF1 focus index: 1.25

====

Provide the recorded inhibition for the entries that follow.
tested on: Hepatitis C virus NS3 helicase; assay: HCV NS3 helicase inhibitors, primary screen, biochemical, fluorescence polarization, LOPAC1280 library (AID 687035); conditions: Purified HCV NS3 helicase, Cy5-dT15 ssDNA binding fluorescence polarization; active compounds read high; concentration not given here
Numbers only, in %.

Below: 4 compounds and their reported inhibition.
>  <Compound>
CCC(C)N(C)C(=O)c1cc2ccccc2c(-c2ccccc2Cl)n1 (stereo not given)

>  <Tested System>
Hepatitis C virus NS3 helicase

>  <Unit Abbreviation>
%

>  <inhibition>
0

$$$$
>  <Compound>
Nc1ccc(-c2nc3ccc(-c4nc5ccc(N)cc5[nH]4)cc3[nH]2)cc1

>  <Tested System>
Hepatitis C virus NS3 helicase

>  <Unit Abbreviation>
%

>  <inhibition>
-5

$$$$
>  <Compound>
COCc1nc2c([nH]1)c(=O)n(C)c(=O)n2CC(C)C

>  <Tested System>
Hepatitis C virus NS3 helicase

>  <Unit Abbreviation>
%

>  <inhibition>
-4

$$$$
>  <Compound>
CCCCCCCC/C=C\CCCCCCCC(=O)NCCc1ccc(O)c(O)c1

>  <Tested System>
Hepatitis C virus NS3 helicase

>  <Unit Abbreviation>
%

>  <inhibition>
-3

$$$$

Please examine the following record next.
Record CCCn1c(=O)c(C)cn2nc(N)nc12 , field inhibition: -2

====

Provide the recorded inhibition for the entries that follow.
molecular target: L-lactate dehydrogenase (Plasmodium falciparum (isolate CDC / Honduras)) (UniProt Q27743); assay: PfLDH activity inhibition – cell lysate, 3D7 strain, counter-screen for P. falciparum growth inhibition project (AID 2304);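 note: 0% = vehicle and 100% = reference inhibitor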; details: P. falciparum 3D7 crude extract, LDH APAD/NBT absorbance; at 2 µM; active compounds read high
Sequence (Q27743 whole entry, looked up): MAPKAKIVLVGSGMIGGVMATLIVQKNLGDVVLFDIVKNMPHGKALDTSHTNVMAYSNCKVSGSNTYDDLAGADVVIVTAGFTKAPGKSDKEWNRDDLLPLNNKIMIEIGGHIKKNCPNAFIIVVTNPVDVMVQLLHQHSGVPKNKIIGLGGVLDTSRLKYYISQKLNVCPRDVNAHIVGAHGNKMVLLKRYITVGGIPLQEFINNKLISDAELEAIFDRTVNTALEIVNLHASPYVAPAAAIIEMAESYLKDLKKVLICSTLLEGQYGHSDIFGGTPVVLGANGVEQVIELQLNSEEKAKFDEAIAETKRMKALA
One number for each entry, in %.

>  <Chemical Smiles>
CC(=O)Nc1ccc(OCCCCN(Cc2ccccc2OC(F)(F)F)c2ccc(C(F)(F)F)c(C#N)c2)c(Cl)c1

>  <Unit Abbreviation>
%

>  <inhibition>
-2

$$$$
>  <Chemical Smiles>
Cc1cccc2[nH]c(-c3cccc(-c4cccc(NC(=O)CCc5cnc[nH]5)c4)c3)nc12

>  <Unit Abbreviation>
%

>  <inhibition>
0

$$$$
>  <Chemical Smiles>
CCn1c(-c2nc(-c3ccnc(N4CCN(C)CC4)c3)cnc2N)nc2cc(S(C)(=O)=O)ccc21

>  <Unit Abbreviation>
%

>  <inhibition>
-1

$$$$

Batch: inhibition for all items listed.
1. CC(=O)Nc1cccc(Nc2nccc(-c3c(-c4cccc(NC(=O)c5c(F)cccc5F)c4)nn4ncccc34)n2)c1
2. O=C(CSc1nc2ccc([N+](=O)[O-])cc2s1)Nc1ccccc1-c1ccccc1
3. COc1c(C2CCN(CCCCNC(=O)c3cc(-c4ccc(C#N)cc4)n[nH]3)CC2)ccc2c1CCCC2
4. CO/C(=C\C=C/c1cc2cc(Cl)c(Cl)cc2[nH]1)C(=O)NC1CC(C)(C)N(C)C(C)(C)C1
5. COc1cc2nc(C)nc(Nc3cccc(Br)c3)c2cc1OC

1. 5
2. 0
3. -6
4. -1
5. -8

Record O=C(NCCN1CCC(c2ccncc2)CC1)c1ccc(Nc2nccc(Nc3ccc(Oc4ccccc4)cc3)n2)cc1 , field inhibition: 1
